EXPERIMENTAL_SYSTEM: Fibroblast growth factor 10 (Homo sapiens)
ASSAY_PROTOCOL: compounds binding fibroblast growth factor 10 – biochemical, small-molecule microarray, 635 nm fluorescence, primary screen (AID 1102)
CONDITIONS_USED: FGF10 binding, fluorescence 635 nm, higher = more signal
Decision: composite z-score >= 0.4 yields rule met, all other cases yield rule not met.

Some entries whose results are on file:
>  <MOLECULE>
COc1ccc(CCNC(=O)[C@@]2(Cc3ccccc3I)c3ccccc3C(=O)N(C3CCCCC3)[C@H]2c2ccc(CO)cc2)cc1

>  <CLASS_ASSIGNMENT>
rule not met

$$$$
>  <MOLECULE>
Cc1ccccc1C(O)C1C=CC2C(=O)NC(=O)C2N1Nc1ccccn1 (stereo not given)

>  <CLASS_ASSIGNMENT>
rule not met

$$$$
>  <MOLECULE>
COc1ccccc1CN1C(=O)c2ccccc2[C@](Cc2ccccc2I)(C(=O)O)[C@@H]1c1ccc(CO)cc1

>  <CLASS_ASSIGNMENT>
rule met

$$$$
>  <MOLECULE>
COCCOC(=O)N1C(=O)[C@@]2(c3cc(C#CC4=CCCCC4)ccc31)[C@H](c1ccccc1OCCO)N1[C@H](c3ccccc3)[C@H](c3ccccc3)OC(=O)[C@H]1[C@@H]2C(=O)NC[C@H](O)c1ccccc1

>  <CLASS_ASSIGNMENT>
rule met

$$$$
>  <MOLECULE>
COc1ccc(C#Cc2ccc3c(c2)[C@]2(C(=O)N3)[C@H](c3ccc(OCCO)cc3)N3[C@H](c4ccccc4)[C@H](c4ccccc4)OC(=O)[C@H]3[C@@H]2C(=O)NC[C@H](O)c2ccccc2)cc1

>  <CLASS_ASSIGNMENT>
rule met

$$$$

Exam item: Evaluate "COc1ccc([Si](C)(C)[C@H]2[C@H](CC(=O)N(CCO)Cc3ccccc3)O[C@@]3(C(=O)N(C)c4c(Br)cc(C)cc43)[C@@H]2C)cc1" : composite z-score at minimum 0.4?
Marked response: rule met

Exam item: Evaluate CN1C(=O)C2C=CC(C(O)c3cccn3C)N(Nc3ccc([N+](=O)[O-])cc3[N+](=O)[O-])C2C1=O (stereo not given) : composite z-score at minimum 0.4?
Marked response: rule not met

Exam item: Evaluate "Cc1ccc(N2C(=O)c3ccccc3[C@@H](C(=O)NCCCN(C)C)[C@@H]2c2ccc(CO)cc2)nc1" : composite z-score at minimum 0.4?
Marked response: rule not met

Exam item: Evaluate "COC(=O)c1c(CC[C@@H](CO)NC(=O)N2CCC[C@H]2Cn2cc(C3(O)CCCCC3)nn2)oc(C(C)=O)c1C(=O)OC" : composite z-score at minimum 0.4?
Marked response: rule met

Exam item: Evaluate CN(C)c1ccc(C(O)C2C=CC3C(=O)NC(=O)C3N2Nc2ccccn2)cc1 (stereo not given) : composite z-score at minimum 0.4?
Marked response: rule met

Exam item: Evaluate "CCCC#C[Si](O[C@H](CC)c1cn([C@H](C)c2ccccc2)nn1)(C(C)C)C(C)C" : composite z-score at minimum 0.4?
Marked response: rule met

Exam item: Evaluate CCCC=C(CCC)[C@@H](NS(=O)(=O)CC12CCC(CC1=O)C2(C)C)c1ccc(C(=O)OC)cc1 (stereo not given in full) : composite z-score at minimum 0.4?
Marked response: rule met

Exam item: Evaluate CC(C)c1ccc(NN2C(C(O)c3ccc(C#N)cc3)C=CC3C(=O)N(c4ccccc4)C(=O)C32)cc1 (stereo not given) : composite z-score at minimum 0.4?
Marked response: rule met

Exam item: Evaluate "C=C(C(=O)CC[C@H](OC(=O)c1ccccc1-c1ccccc1C(=O)O)c1cccc(OCCO)c1)C(C)C" : composite z-score at minimum 0.4?
Marked response: rule not met

Exam item: Evaluate "C=CC[C@]1(C(=O)N2CCOCC2)COC(c2ccc(OCCCO)cc2)=N1" : composite z-score at minimum 0.4?
Marked response: rule met

The values you see were collected from PubChem BioAssay.
